# protocol-details: Microsomal stability, human liver microsomes (predicted hepatic clearance)
# condition-notes: predicted from in vitro microsomal stability data
Exercise: for every item that follows, state its recorded Predicted Hepatic Clearance (Pred. Cl.).
Give bare numbers, in mL/min/kg.

Example cases with answers are listed next.
// recorded Predicted Hepatic Clearance (Pred. Cl.) for N#CCC1(Cn2c(Cc3cc(F)c(-c4nc(OCc5ccc(C#N)cc5F)ncc4F)cc3F)nc3ccc(C(=O)O)nc32)CC1 [Example 129] : 3.17

// field: Predicted Hepatic Clearance (Pred. Cl.); key: COCCn1c(Cc2ccc(-c3cc(F)cc(OCc4ccc(C#N)cc4F)c3)cc2F)nc2ccc(C(=O)O)cc21 [Example 27] ; value = 2.5

Now for a further molecule.
Noted for N#Cc1ccc(COc2cccc(-c3cc(F)c(Cc4nc5ccc(C(=O)O)cc5n4Cc4nccs4)cc3F)n2)c(F)c1 [Example 707] : its Predicted Hepatic Clearance (Pred. Cl.) reads 4

###

# protocol-details: Microsomal stability, human liver microsomes (predicted hepatic clearance)
# condition-notes: predicted from in vitro microsomal stability data
readout-kind: Predicted Hepatic Clearance (Pred. Cl.)

The examples below pair each entry with its known result.
Lookup result for COCCn1c(Cc2ccc(-c3cccc(OCc4ccc5c(c4)OC(F)(F)O5)n3)cc2F)nc2ccc(C(=O)O)cc21 ; measured Predicted Hepatic Clearance (Pred. Cl.): <1.83 mL/min/kg

# compound O=C(O)c1ccc2nc(Cc3cc(F)c(-c4ccnc(OCc5ccc(Cl)cc5F)n4)cc3F)n(CC3(CF)CC3)c2n1 ; its Predicted Hepatic Clearance (Pred. Cl.) = <1.83 mL/min/kg

Moving on to another compound below.
Entry N#Cc1ccc(COc2nccc(-c3cc(F)c(Cc4nc5ccc(C(=O)O)nc5n4CC4(CF)CC4)cc3F)n2)c(F)c1 ; Predicted Hepatic Clearance (Pred. Cl.) = <1.83 mL/min/kg

###

Exercise: for every item that follows, state its recorded EC50.
# target-or-test-system: UniProt P43220
# Sequence (P43220 24-463): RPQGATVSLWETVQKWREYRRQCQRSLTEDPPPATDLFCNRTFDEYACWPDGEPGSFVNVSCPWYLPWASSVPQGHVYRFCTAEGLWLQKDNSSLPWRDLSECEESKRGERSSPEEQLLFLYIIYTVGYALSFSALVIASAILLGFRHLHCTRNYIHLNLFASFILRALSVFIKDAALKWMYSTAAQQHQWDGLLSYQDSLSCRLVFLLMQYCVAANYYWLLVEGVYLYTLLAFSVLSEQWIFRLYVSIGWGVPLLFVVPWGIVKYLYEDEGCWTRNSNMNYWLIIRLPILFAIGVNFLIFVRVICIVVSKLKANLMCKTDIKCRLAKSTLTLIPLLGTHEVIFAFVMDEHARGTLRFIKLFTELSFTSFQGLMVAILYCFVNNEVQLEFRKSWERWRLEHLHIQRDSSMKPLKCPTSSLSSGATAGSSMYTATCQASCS
# protocol-details: GLP-1R activation: cAMP increase in CHO cells stably expressing GLP-1R
# Assay type: cell-based
# condition-notes: cAMP increase, CHO cells stably expressing GLP-1R, 10 point dose response, 30 minutes incubation; read-out: EC50
Give bare numbers, in nM.

get_value(item= N#Cc1ccc(COc2cccc(-c3ccc(Cc4nc5c(F)cc(C(=O)O)cc5n4C[C@@H](O)CCO)cc3F)n2)c(F)c1 , readout=EC50) returns 13.7

# EC50 of N#Cc1ccc(COc2cccc(-c3ccn(Cc4nc5ccc(C(=O)O)cc5n4C[C@@H]4CCO4)c(=O)c3)n2)c(F)c1 = 4.12

Input COCCn1c(Cc2ccc(-c3cccc(OCc4ccc(C#N)cc4OC(F)F)n3)cc2F)nc2ccc(C(=O)O)cc21 . Output EC50: 6.95

Continue with the next compound.
Entry COCCn1c(Cc2cc(F)c(-c3cccc(OCc4csc(Cl)c4)n3)cc2F)nc2ccc(C(=O)O)cc21 ; EC50 = 12.3

###

# protocol-details: Microsomal stability, human liver microsomes (predicted hepatic clearance)
# condition-notes: predicted from in vitro microsomal stability data
readout-kind: Predicted Hepatic Clearance (Pred. Cl.) (L/h/kg)
Numbers only, in L/h/kg.

# count of solved cases: 2
# compound COCCn1c(Cc2ccc(-c3ccnc(OCc4ccc(C#N)cc4OC)n3)cc2F)nc2ccc(C(=O)O)cc21 [Example 112] ; its Predicted Hepatic Clearance (Pred. Cl.) = 0.55

get_value(item= N#Cc1ccc(COc2cccc(-c3ccc(Cc4nc5ccc(C(=O)O)cc5n4C[C@@H]4CCN4C4COC4)c(F)c3)n2)c(F)c1 [Example 396] , readout=Predicted Hepatic Clearance (Pred. Cl.)) returns 0.52

Give Predicted Hepatic Clearance (Pred. Cl.) for each of the items listed below.
1. N#Cc1ccc(COc2cccc(-c3cnc(Cc4nc5ccc(C(=O)O)cc5n4C[C@@H]4CCO4)c(F)c3)n2)c(F)c1 [Example 682]
2. COCCn1c(Cc2ccc(-c3cccc(OCc4cccc5c4OCCO5)n3)cc2F)nc2ccc(C(=O)O)cc21 [Example 348]

Result:
1. 0.15
2. 0.57

COCCn1c(Cc2ccc(-c3conc3OCc3ccc(C#N)cc3F)cc2F)nc2ccc(C(=O)O)cc21 [Example 80] yielded Predicted Hepatic Clearance (Pred. Cl.) of 0.31
